Listing of entries alongside the reported glycan array binding signal (z-score).
- testTarget: Gal3S(b1-4)[Fuc(a1-3)]Glc6S
- testMethodNotes: glycan array binding signal (z-score within array); higher = stronger binding
- studyConditions: glycan notation: IUPAC condensed, linker removed
The sample as a whole holds a higher share of the strongest signals than the screen did.
Please reply with the number alone, leaving off any unit.

| binder | glycan array binding signal (z-score) |
| --- | --- |
| CLECb-Precomplexed (Mus musculus), P43025 (protein) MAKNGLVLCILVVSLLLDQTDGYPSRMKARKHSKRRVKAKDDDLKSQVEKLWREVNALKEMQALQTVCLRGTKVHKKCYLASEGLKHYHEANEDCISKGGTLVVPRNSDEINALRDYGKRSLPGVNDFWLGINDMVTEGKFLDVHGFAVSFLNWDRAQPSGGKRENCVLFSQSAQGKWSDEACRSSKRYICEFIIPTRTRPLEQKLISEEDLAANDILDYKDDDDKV | 3.47 |

Next item in the queue.
Look up and state reported glycan array binding signal (z-score) for Cohesin-hDCIR (Homo sapiens) (protein) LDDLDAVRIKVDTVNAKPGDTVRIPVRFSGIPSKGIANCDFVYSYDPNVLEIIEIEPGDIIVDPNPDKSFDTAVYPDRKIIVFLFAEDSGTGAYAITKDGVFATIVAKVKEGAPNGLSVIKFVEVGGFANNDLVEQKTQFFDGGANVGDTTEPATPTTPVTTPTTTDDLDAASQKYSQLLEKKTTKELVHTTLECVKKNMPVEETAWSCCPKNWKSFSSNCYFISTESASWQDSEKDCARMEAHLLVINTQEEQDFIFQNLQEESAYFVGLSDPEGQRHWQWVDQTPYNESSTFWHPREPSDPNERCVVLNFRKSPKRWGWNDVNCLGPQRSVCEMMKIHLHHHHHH
-0.343
